meta.source: patent US11377442B2

tgt: NR2F6 (Homo sapiens)
Construct: expressed in transfected cells; also transient transfection
Sequence (P10588 1-404): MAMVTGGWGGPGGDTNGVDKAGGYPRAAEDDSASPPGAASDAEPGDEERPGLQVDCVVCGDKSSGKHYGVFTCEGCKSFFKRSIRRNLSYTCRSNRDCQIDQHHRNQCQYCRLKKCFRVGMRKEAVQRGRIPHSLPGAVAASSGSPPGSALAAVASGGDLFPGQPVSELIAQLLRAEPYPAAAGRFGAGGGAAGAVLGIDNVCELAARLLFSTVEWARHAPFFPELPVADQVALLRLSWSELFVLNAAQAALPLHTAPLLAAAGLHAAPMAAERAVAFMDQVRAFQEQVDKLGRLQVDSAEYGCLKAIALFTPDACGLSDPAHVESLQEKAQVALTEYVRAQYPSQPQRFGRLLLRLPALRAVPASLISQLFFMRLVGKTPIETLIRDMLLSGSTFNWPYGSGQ
experiment.description: NR2F6 agonist screening, Firefly signal cmpd/DMSO
Assay type: cell-based
condition.summary: 1% FBS; 10 uM
F4, Firefly/Renilla for S/B(F4) > 3 overview

substance.smiles: CC(C)N[C@H]1CS(=O)(=O)C[C@@H]1S(=O)(=O)c1ccc(Cl)cc1
F4, Firefly/Renilla for S/B(F4) > 3: 3.2

substance.smiles: CCCCN[C@H]1CS(=O)(=O)C[C@@H]1S(=O)(=O)c1ccc(Cl)cc1
F4, Firefly/Renilla for S/B(F4) > 3: 2.5

substance.smiles: CC(C)OCCCN[C@H]1CS(=O)(=O)C[C@@H]1S(=O)(=O)c1ccc(Cl)cc1
F4, Firefly/Renilla for S/B(F4) > 3: 2.2

substance.smiles: Cc1cccc(CN[C@H]2CS(=O)(=O)C[C@@H]2S(=O)(=O)c2ccc(Cl)cc2)c1
F4, Firefly/Renilla for S/B(F4) > 3: 2.7

substance.smiles: O=S1(=O)C[C@H](NCCCc2ccccc2)[C@@H](S(=O)(=O)c2ccc(Cl)cc2)C1
F4, Firefly/Renilla for S/B(F4) > 3: 1.9

substance.smiles: CC(C)CN[C@H]1CS(=O)(=O)C[C@@H]1S(=O)(=O)c1ccc(Cl)cc1
F4, Firefly/Renilla for S/B(F4) > 3: 2.3

substance.smiles: CCCCN(C)[C@H]1CS(=O)(=O)C[C@@H]1S(=O)(=O)c1ccc(Cl)cc1
F4, Firefly/Renilla for S/B(F4) > 3: 3.0

substance.smiles: CC1CCN([C@H]2CS(=O)(=O)C[C@@H]2S(=O)(=O)c2cccs2)CC1
F4, Firefly/Renilla for S/B(F4) > 3: 2.5

* * *

tgt: NR2F6 (Homo sapiens)
Construct: expressed in transfected cells; also transient transfection
Sequence (P10588 1-404): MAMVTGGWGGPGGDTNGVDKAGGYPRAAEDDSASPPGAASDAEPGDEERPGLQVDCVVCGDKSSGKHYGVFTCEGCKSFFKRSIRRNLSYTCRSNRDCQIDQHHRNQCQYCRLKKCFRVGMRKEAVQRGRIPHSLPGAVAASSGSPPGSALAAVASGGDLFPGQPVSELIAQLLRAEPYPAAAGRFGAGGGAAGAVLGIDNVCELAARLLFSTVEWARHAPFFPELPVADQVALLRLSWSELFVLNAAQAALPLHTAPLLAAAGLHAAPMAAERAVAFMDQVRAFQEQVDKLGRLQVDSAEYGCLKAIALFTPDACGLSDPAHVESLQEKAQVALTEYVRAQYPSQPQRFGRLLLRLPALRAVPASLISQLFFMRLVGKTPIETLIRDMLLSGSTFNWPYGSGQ
experiment.description: NR2F6 agonist screening, Firefly signal cmpd/DMSO
Format: cell-based
condition.summary: C11 analogs follow set (Tables 2-10), repeat 1
Below: a set of entries, each annotated with reported Firefly, cmpd/DMSO repeat 1.

molecule: CCN(CC)c1ccc2cc(S(=O)(=O)c3ccc(Br)cc3)c(=O)oc2c1 [Compound C278]
Firefly, cmpd/DMSO repeat 1: 2.4
--
molecule: Cc1ccc(NC(=O)c2ccc3oc(=O)c(S(=O)(=O)c4ccccc4)cc3c2)cc1 [Compound C161]
Firefly, cmpd/DMSO repeat 1: 35.4
--
molecule: O=c1oc2ccc(Cl)cc2cc1S(=O)(=O)c1cccc(Cl)c1 [Compound C191]
Firefly, cmpd/DMSO repeat 1: 8.6
--
molecule: O=c1oc2ccc(Cl)cc2cc1S(=O)(=O)c1cccc(F)c1 [Compound C182]
Firefly, cmpd/DMSO repeat 1: 16.2
--
molecule: COc1ccc(S(=O)(=O)c2cc3cc(Br)ccc3oc2=O)cc1OC [Compound C154]
Firefly, cmpd/DMSO repeat 1: 35.4
--
molecule: CC(C)(C)c1ccc(S(=O)(=O)c2cc3cc(F)ccc3oc2=O)cc1 [Compound C216]
Firefly, cmpd/DMSO repeat 1: 1.3
--
molecule: O=c1oc2ccc(F)cc2cc1S(=O)(=O)c1ccc(F)cc1 [Compound C213]
Firefly, cmpd/DMSO repeat 1: 14.0
--
molecule: COc1cccc(S(=O)(=O)c2cc3cc(Br)ccc3oc2=O)c1 [Compound C185]
Firefly, cmpd/DMSO repeat 1: 2.6
--
molecule: Cc1cc(S(=O)(=O)c2cc3cc(F)ccc3oc2=O)ccc1F [Compound C217]
Firefly, cmpd/DMSO repeat 1: 1.8
--
molecule: COc1ccc2cc(S(=O)(=O)c3ccccc3)c(=O)oc2c1 [Compound C264]
Firefly, cmpd/DMSO repeat 1: 1.1
--
molecule: COc1ccc2cc(S(=O)(=O)c3ccccc3F)c(=O)oc2c1 [Compound C280]
Firefly, cmpd/DMSO repeat 1: 0.6
--
molecule: COc1ccc2cc(S(=O)(=O)c3ccc(C(C)C)cc3)c(=O)oc2c1 [Compound C269]
Firefly, cmpd/DMSO repeat 1: 3.0
--
molecule: COC(=O)c1ccc2oc(=O)c(S(=O)(=O)c3ccc(F)cc3)cc2c1 [Compound C14]
Firefly, cmpd/DMSO repeat 1: 22.3
--
molecule: CCOc1ccccc1NC(=O)c1ccc2oc(=O)c(S(=O)(=O)c3ccc(F)cc3)cc2c1 [Compound C181]
Firefly, cmpd/DMSO repeat 1: 10.4
--
molecule: Cc1ccc(NC(=O)c2ccc3oc(=O)c(S(=O)(=O)c4ccccc4)cc3c2)cc1C [Compound C167]
Firefly, cmpd/DMSO repeat 1: 1.0
--
molecule: O=C(NCc1ccc(F)cc1)c1ccc2oc(=O)c(S(=O)(=O)c3ccc(F)cc3)cc2c1 [Compound C118]
Firefly, cmpd/DMSO repeat 1: 13.5
--
molecule: COc1ccc(S(=O)(=O)c2cc3cc(Cl)ccc3oc2=O)cc1OC [Compound C155]
Firefly, cmpd/DMSO repeat 1: 37.3
--
molecule: Cc1ccc(S(=O)(=O)c2cc3cc(C(=O)Nc4cc(C)cc(C)c4)ccc3oc2=O)cc1 [Compound C175]
Firefly, cmpd/DMSO repeat 1: 13.2

* * *

tgt: NR2F6 (Homo sapiens)
Construct: expressed in transfected cells; also transient transfection
experiment.description: NR2F6 agonist screening, Firefly signal cmpd/DMSO
Assay type: cell-based
condition.summary: 2 uM; F4
# Firefly F4, cmpd/DMSO (mean) annotations
property.label: Firefly F4, cmpd/DMSO (mean)

substance.smiles: CCCN[C@H]1CS(=O)(=O)C[C@@H]1S(=O)(=O)c1ccc(Cl)cc1
meas.value: 2.2
//
substance.smiles: O=S1(=O)C[C@H](NCc2ccncc2)[C@@H](S(=O)(=O)c2cccs2)C1
meas.value: 1.3
//
substance.smiles: Cc1cccc(CN[C@H]2CS(=O)(=O)C[C@@H]2S(=O)(=O)c2ccc(Cl)cc2)c1
meas.value: 1.1
//
substance.smiles: C[C@@H]1C[C@H](C)CN([C@H]2CS(=O)(=O)C[C@@H]2S(=O)(=O)c2cccs2)C1
meas.value: 2.3
//
substance.smiles: CC(=O)N1CCN([C@H]2CS(=O)(=O)C[C@@H]2S(=O)(=O)c2ccc(F)c(C)c2)CC1
meas.value: 1.0
//
substance.smiles: CC1CCN([C@H]2CS(=O)(=O)C[C@@H]2S(=O)(=O)c2cccs2)CC1
meas.value: 2.3
//
substance.smiles: COc1ccc(CCN[C@H]2CS(=O)(=O)C[C@@H]2S(=O)(=O)c2ccc(Cl)cc2)cc1OC
meas.value: 2.0
//
substance.smiles: COCCCN[C@H]1CS(=O)(=O)C[C@@H]1S(=O)(=O)c1ccc(Cl)cc1
meas.value: 1.8

* * *

tgt: NR2F6 (Homo sapiens, UniProt P10588)
Construct: expressed in transfected cells; also transient transfection
experiment.description: NR2F6 agonist screening, Firefly signal cmpd/DMSO
Assay type: cell-based
Design: unit of the concentration uncertain
condition.summary: Concentration 40 (unit uncertain); F4
Firefly F4, cmpd/DMSO (mean) values for the compounds below.

compound: Cc1ccc(S(=O)(=O)N(Cc2nc3nc(C)c(S)c(C)n3n2)c2ccccc2)cc1 [Compound E57]
Firefly F4, cmpd/DMSO (mean): 1.3
--
compound: Cc1cccn2cc(CNS(=O)(=O)c3ccccc3F)nc12 [Compound E52]
Firefly F4, cmpd/DMSO (mean): 0.7
--
compound: Cc1ccc(S(=O)(=O)NCc2cn3cccc(C)c3n2)cc1C [Compound E41]
Firefly F4, cmpd/DMSO (mean): 0.4
--
compound: COc1ccc(Cl)cc1S(=O)(=O)NCc1nc2nc(C)cc(C)n2n1 [Compound E15]
Firefly F4, cmpd/DMSO (mean): 0.8
--
compound: COc1ccc(S(=O)(=O)NCc2nc3nc(C)cc(C)n3n2)cc1OC [Compound E8]
Firefly F4, cmpd/DMSO (mean): 0.7
--
compound: Cc1cc(C)c(S(=O)(=O)NCc2nc3nc(C)cc(C)n3n2)c(C)c1 [Compound E10]
Firefly F4, cmpd/DMSO (mean): 0.8
--
compound: Cc1ccc(S(=O)(=O)NCc2cn3ccccc3n2)c(C)c1 [Compound E24]
Firefly F4, cmpd/DMSO (mean): 0.7
--
compound: COc1ccc(OC)c(S(=O)(=O)NCc2nc3nc(C)cc(C)n3n2)c1 [Compound E4]
Firefly F4, cmpd/DMSO (mean): 0.8
